Listed below: activation factor values for each entry.
# Test system: intestinal alkaline phosphatase [Mus musculus]
# PROCEDURE SUMMARY: mouse intestinal phosphatase enzyme activation – biochemical, luminescence, single concentration, confirmation (AID 434970)
# STATED CONDITIONS: purified mouse IAP, CDP-Star luminescence, 30 min, at 10 µM; measured here: IAP activation factor, stronger effect = higher value
Hit rate of the full screen: of about 11,000 compounds, about 310 (2.8%) were called active. This excerpt belongs to a sample that is enriched for actives.

{"MOLECULE": "Cc1ccc(OC(F)F)c(NC(=O)Nc2cccc(C(F)(F)F)c2)c1", "activation factor": 1.6}
{"MOLECULE": "CCN(CC)S(=O)(=O)c1ccc(NC(=O)Nc2cccc(C(F)(F)F)c2)cc1", "activation factor": 2.03}
{"MOLECULE": "CC(=O)c1ccc(NC(=O)Nc2ccc3c(c2)N(C)C(=O)CS3)cc1", "activation factor": 1.28}
{"MOLECULE": "Cc1cc(C)c2c(n1)nn1c(NCCOCCO)cc(C)nc21", "activation factor": 0.968}
{"MOLECULE": "COc1cccc(-c2cc(C(F)(F)F)n3ncc(C(=O)NCC4CCCO4)c3n2)c1 (stereo unspecified)", "activation factor": 1.05}
{"MOLECULE": "Cc1cc(C)cc(NC(=O)Nc2ccc3c(c2)N(C)C(=O)CS3)c1", "activation factor": 2.54}
{"MOLECULE": "COc1ccc(C2=NO[C@@H]3C(=O)N(c4cccc(C)c4C)C(=O)[C@H]23)cc1OC", "activation factor": 0.93}
{"MOLECULE": "CCOC(=O)C1(CC)NC(c2ccco2)C2C(=O)N(c3ccc(C)cc3)C(=O)C21 (stereo unspecified)", "activation factor": 1.05}
{"MOLECULE": "CCCCc1ccc(CC(=O)O)cc1", "activation factor": 0.907}
{"MOLECULE": "COc1ccc(CNC(=S)Nc2ccc(F)c(Cl)c2)cc1OC", "activation factor": 1.56}
{"MOLECULE": "N#Cc1c2c(c(NCc3cccnc3)n3c1nc1ccccc13)CCC2", "activation factor": 0.779}
{"MOLECULE": "CCCC1(C(=O)OCC)NC(c2cc(OC)c(OC)c(OC)c2)C2C(=O)N(CC)C(=O)C21 (stereo unspecified)", "activation factor": 0.957}
{"MOLECULE": "O=C(CC1Sc2ccccc2NC1=O)OCC(=O)N1CCc2ccccc21 (stereo unspecified)", "activation factor": 1.11}
{"MOLECULE": "CCC(C)OC(=O)c1cc(C)nc2c(Br)cc(Br)cc12 (stereo unspecified)", "activation factor": 1.02}
{"MOLECULE": "CC[C@]12c3[nH]c4ccc(OC)cc4c3CCN1C(=O)C(CC(=O)NCc1cccc(C(F)(F)F)c1)C[C@@H]2C(=O)N1CCN(C(=O)c2ccco2)CC1 (stereo partly specified)", "activation factor": 0.989}
{"MOLECULE": "Cc1ccc(CNC(=O)Nc2ccc3c(c2)N(C)C(=O)CS3)cc1", "activation factor": 1.78}
{"MOLECULE": "CCOc1ccc(NC(=O)Nc2ccc3c(c2)N(C)C(=O)CS3)cc1", "activation factor": 1.29}
{"MOLECULE": "CCOc1ccc(C2N(c3cc(C)on3)C(=O)C3CCCN32)cc1OC (stereo unspecified)", "activation factor": 1.05}
{"MOLECULE": "O=C(Oc1cccc(NC(=O)c2ccco2)c1)c1ccc(Br)c(S(=O)(=O)N2CCCCC2)c1", "activation factor": 0.907}
{"MOLECULE": "CCc1ccc(NC(=O)Nc2ccc3c(c2)N(C)C(=O)CS3)cc1", "activation factor": 2.14}
{"MOLECULE": "CCOC(=O)CCc1c(C)c(C#N)c2nc3ccccc3n2c1-n1cnc2ccccc21", "activation factor": 1.02}

Values from PubChem BioAssay AID434970
